For each entry below, report its residual activity value.
Biological target: PAK7 (human) (UniProt Q9P286)
Sequence (Q9P286 whole entry, looked up): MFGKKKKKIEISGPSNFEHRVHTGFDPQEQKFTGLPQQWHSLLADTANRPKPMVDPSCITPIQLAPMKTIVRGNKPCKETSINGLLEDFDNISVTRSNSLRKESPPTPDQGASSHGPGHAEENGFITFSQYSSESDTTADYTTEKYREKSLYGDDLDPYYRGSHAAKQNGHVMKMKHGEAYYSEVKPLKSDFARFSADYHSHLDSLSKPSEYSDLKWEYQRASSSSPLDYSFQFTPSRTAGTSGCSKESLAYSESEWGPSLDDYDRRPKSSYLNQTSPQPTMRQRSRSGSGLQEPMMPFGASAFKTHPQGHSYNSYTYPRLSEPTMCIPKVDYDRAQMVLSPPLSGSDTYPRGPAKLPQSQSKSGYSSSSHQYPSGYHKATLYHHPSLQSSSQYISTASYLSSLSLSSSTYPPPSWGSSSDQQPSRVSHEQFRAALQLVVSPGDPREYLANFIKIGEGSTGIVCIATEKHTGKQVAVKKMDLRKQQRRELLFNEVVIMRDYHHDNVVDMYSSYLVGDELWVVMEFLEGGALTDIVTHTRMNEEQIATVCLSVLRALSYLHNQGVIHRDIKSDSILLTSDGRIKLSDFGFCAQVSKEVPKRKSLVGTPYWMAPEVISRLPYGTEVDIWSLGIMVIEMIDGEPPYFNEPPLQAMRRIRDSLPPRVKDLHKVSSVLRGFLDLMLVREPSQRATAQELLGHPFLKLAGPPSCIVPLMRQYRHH
Test: radiometric filter-binding kinase assay, Kinase HotSpot
Conditions: compound 0.5 µM; ATP 10 µM
Field format: number, assumed %, no unit text.

Request: Read off the recorded residual activity for Cc1nc(-c2ccccc2)c(-c2ccncc2)o1
Result: 96.1

Request: Read off the recorded residual activity for CCCCc1c(-c2ccc(OC)cc2)[nH]c2nccnc12
Result: 88.1

Request: Read off the recorded residual activity for N#Cc1c[nH]c2c[nH]/c(=N\Cc3cccnc3)cc2/c1=N\c1ccc(F)c(Cl)c1
Result: 98.3

Request: Read off the recorded residual activity for COc1ccc(Cl)cc1NC(=O)Nc1cc(C)nc2ccccc12
Result: 85.1

Request: Read off the recorded residual activity for Fc1ccc(-c2nc3n(c2-c2ccncc2)CCS3)cc1
Result: 97.6

Request: Read off the recorded residual activity for c1ccc2c(-c3ccncc3)c[nH]c2c1
Result: 93.8

Request: Read off the recorded residual activity for Cc1cncc2cccc(S(=O)(=O)N3CCCN(C(=O)CN)C[C@H]3C)c12
Result: 101

Request: Read off the recorded residual activity for COc1cc2ncnc(Nc3ccc(Oc4ccccc4)cc3)c2cc1OC
Result: 103

Request: Read off the recorded residual activity for O=C1C(Cl)=C(N2C(=O)CCC2=O)C(=O)c2ccccc21
Result: 108

Request: Read off the recorded residual activity for CN(C)CCCn1cc(C2=C(c3c[nH]c4ccccc34)C(=O)NC2=O)c2ccccc21
Result: 92.8

Request: Read off the recorded residual activity for O=C1Nc2ccc(Br)cc2/C1=C\c1cc2c([nH]1)CCCC2
Result: 85.4

Request: Read off the recorded residual activity for NC(=O)c1cccc(-c2cc(Nc3ccc(OC(F)(F)F)cc3)ncn2)c1
Result: 88.1

Request: Read off the recorded residual activity for CN(C)c1ccc(/C=C2\C(=O)Nc3ccccc32)cc1
Result: 101

Request: Read off the recorded residual activity for O=C1c2ccccc2-c2nc3nnnn3nc21
Result: 93.4

Request: Read off the recorded residual activity for COc1ccc(S(=O)(=O)N(CCO)c2ccccc2CN(C)C/C=C/c2ccc(Cl)cc2)cc1
Result: 107

Request: Read off the recorded residual activity for COc1cc2ncnc(Nc3ccc(OCc4ccccc4)cc3)c2cc1OC
Result: 99.6

Request: Read off the recorded residual activity for COc1cc(Nc2c(C#N)cnc3cc(OCCCN4CCN(C)CC4)c(OC)cc23)c(Cl)cc1Cl
Result: 83.6

Request: Read off the recorded residual activity for COc1ccc2c(c1)/C(=C/c1cnc[nH]1)C(O)=N2
Result: 96.9

Request: Read off the recorded residual activity for Cc1cccc(-c2nc(C(C)(C)C)[nH]c2-c2ccc3c(c2)OCO3)n1
Result: 92.7

Request: Read off the recorded residual activity for CS(=O)(=O)CCNCc1ccc(-c2ccc3ncnc(Nc4ccc(OCc5cccc(F)c5)c(Cl)c4)c3c2)o1
Result: 98.5

Request: Read off the recorded residual activity for O=C(c1cc2cc(O)ccc2[nH]1)c1cc2cc(O)ccc2[nH]1
Result: 85.3

Request: Read off the recorded residual activity for Cn1c2ccccc2c2c3c(c4c5ccccc5n(CCC#N)c4c21)CNC3=O
Result: 37.1

Just for reference, the kinase profiling compilation of Christmann-Franck et al. (2016) is where these values come from.
